Biological target: Muscarinic acetylcholine receptor M3 (Homo sapiens)
Sequence (P20309 whole entry): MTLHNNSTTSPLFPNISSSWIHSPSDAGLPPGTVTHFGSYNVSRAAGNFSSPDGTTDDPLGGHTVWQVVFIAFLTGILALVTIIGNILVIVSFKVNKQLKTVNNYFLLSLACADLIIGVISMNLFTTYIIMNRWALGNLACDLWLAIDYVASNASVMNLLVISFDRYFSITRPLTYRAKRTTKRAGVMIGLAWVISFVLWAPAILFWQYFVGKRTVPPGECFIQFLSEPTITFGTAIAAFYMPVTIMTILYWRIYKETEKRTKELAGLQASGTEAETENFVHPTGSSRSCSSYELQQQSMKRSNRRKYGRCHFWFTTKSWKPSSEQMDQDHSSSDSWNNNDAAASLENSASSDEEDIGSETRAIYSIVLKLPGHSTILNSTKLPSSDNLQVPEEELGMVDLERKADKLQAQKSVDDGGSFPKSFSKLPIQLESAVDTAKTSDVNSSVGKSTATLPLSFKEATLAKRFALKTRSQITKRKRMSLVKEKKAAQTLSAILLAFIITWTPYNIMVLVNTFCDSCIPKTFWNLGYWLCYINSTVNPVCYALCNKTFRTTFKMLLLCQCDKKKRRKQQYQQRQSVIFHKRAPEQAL
Experiment: Displacement of [3H]4-DAMP from human recombinant M3 receptor incubated for 1 hr by radiometric scintillation counting analysis
pKd: −log10 of the molar value.
assayEndpoint: pKd

What measured pKd goes with `C[C@H](CN1CCC[C@@H]1C)NC(=O)c1ccc(-c2noc(C(F)(F)F)n2)cc1` ?
< 5.30

----------
Assay: Plasma clearance in C57BL/6J mouse at 3.3 mg/kg, iv by LC-MS/MS analysis
Format: ADME, organism-based
assayEndpoint: clearance

What measured clearance goes with `C[C@H](CN1CCC[C@@H]1C)NC(=O)c1ccc(-c2noc(C(F)(F)F)n2)cc1` ?
4.2 L/h/kg
